B1: CLCN6 (parent)
chain: ILRSQLVTLLVRGVCYSESQSSAS

Variants of: B1
Experiment notes: protein stability index of a GFP-peptide fusion (GPS, HEK-293T) (PSI 1-6); higher = more stable;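 further: lentivirally expressed fusions sorted by FACS into six bins by GFP to DsRed ratio, PSI derived from sequencing read proportions per bin multiplied by bin number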
Condition summary: c terminus: a fixed tail appended
Criterion met means recorded protein stability index is 2 or above; Criterion not met means it is below 2.

Record excerpt, results attached:
R3Y	Criterion met
S22D	Criterion not met

For this variant, is measured protein stability index 2 or higher? `G13L`
Criterion met

For this variant, is measured protein stability index 2 or higher? `L9N`
Criterion not met

For this variant, is measured protein stability index 2 or higher? `Q5S`
Criterion met

For this variant, is measured protein stability index 2 or higher? `C15N`
Criterion not met

For this variant, is measured protein stability index 2 or higher? `Y16A`
Criterion met

These data points were gathered from the supplement of paper PMC10567573.
